IC50 for assorted compounds
- experimentalSystem: Methyl-CpG-binding domain protein 2 (Homo sapiens) (UniProt Q9UBB5)
- Sequence (Q9UBB5 whole entry, looked up, the tested form may be a part): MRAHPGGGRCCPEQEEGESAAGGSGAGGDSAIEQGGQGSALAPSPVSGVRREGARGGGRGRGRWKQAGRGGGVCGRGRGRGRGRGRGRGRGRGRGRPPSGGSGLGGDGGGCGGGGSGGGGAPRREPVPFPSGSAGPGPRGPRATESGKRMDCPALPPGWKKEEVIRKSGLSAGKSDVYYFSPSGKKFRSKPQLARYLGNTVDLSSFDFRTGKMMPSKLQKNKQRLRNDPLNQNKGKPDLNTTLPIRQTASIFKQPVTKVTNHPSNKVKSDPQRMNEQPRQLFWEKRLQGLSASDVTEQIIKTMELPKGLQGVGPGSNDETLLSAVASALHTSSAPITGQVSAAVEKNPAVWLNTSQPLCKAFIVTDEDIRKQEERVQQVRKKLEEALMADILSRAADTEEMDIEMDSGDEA
- assaySummary: inhibitors of MBD2 binding to methylated DNA, dose response, biochemical, TR-FRET, DNA-binding domain, late stage (AID 1053169)
- conditionNotes: TR-FRET MBD2-DBD binding to methylated oligonucleotide
Calls of active or inactive are those of the source. No rule for the calls is given here.

Check out these entries, answers already filled in.
compound | IC50
CCOC(=O)c1oc2ccc(CNC(C)(C)C)c(Cl)c2c1C | > 43.8 µM (inactive)
COc1ccc(C(=O)N2CCC(C(=O)Nc3ccc(C)cc3)CC2)cc1 | > 43.8 µM (inactive)
CC(C)n1nc(C(=O)Nc2nc3ccccc3[nH]2)c2ccccc2c1=O | > 43.8 µM (inactive)
CSc1ccc(OC2CCCCC2NS(=O)(=O)c2ccc(Cl)cc2)cc1 (stereo not given) | > 43.8 µM (inactive)

Task: Reported IC50 for `COc1ccc(NC(=O)Cn2cc(C(C)=O)c3ccccc32)cc1` : what is it?
Result: > 43.8 µM (inactive)

Task: Another compound: Cc1ccc(Cl)cc1N1CCN(S(=O)(=O)c2ccc3c(c2)NC(=O)C(C)C(=O)N3)CC1 (stereo not given)
Result: > 43.8 µM (inactive)

Task: Another compound: `COc1ccc(NC(=O)COC(=O)CCc2ccc(S(=O)(=O)N3CCOCC3)cc2)cc1Cl`
Result: > 43.8 µM (inactive)

Task: Another compound: CCCCn1c(NC(C)CC)nc2c1c(=O)[nH]c(=O)n2C (stereo not given)
Result: > 43.8 µM (inactive)

Task: Another compound: `CCc1cccc(OCC(=O)Nc2ccc(S(=O)(=O)Nc3ccccn3)cc2)c1`
Result: > 43.8 µM (inactive)

Task: Another compound: `COc1ccc(NC(=O)CN2CCN(c3ccccc3C)CC2)cc1`
Result: > 43.8 µM (inactive)
